- Assayed System: Cholinesterase (Equus caballus, UniProt P81908)
- Sequence (P81908 whole entry): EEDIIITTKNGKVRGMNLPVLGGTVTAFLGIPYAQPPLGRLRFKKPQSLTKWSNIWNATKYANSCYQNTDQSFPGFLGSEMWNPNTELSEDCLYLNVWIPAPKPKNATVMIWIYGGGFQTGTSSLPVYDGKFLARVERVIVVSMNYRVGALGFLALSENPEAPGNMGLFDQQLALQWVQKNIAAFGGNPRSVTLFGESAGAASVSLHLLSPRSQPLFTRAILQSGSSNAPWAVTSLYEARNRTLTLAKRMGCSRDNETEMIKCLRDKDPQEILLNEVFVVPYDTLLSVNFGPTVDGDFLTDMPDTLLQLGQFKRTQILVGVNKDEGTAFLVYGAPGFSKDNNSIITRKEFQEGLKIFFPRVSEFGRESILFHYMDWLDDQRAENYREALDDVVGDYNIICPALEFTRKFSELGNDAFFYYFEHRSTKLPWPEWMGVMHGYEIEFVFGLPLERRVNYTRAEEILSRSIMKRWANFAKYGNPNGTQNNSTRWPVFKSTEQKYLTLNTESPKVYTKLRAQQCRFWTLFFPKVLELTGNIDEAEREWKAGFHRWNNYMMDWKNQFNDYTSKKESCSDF
Hi! Could you tag entries with IC50 below 300 nM as T, and those at or above as F? Much appreciated.

Line Notation: O=C(/C=C/c1ccc(O)cc1)NCCCCCCNc1c2c(nc3ccccc13)CCCC2
Assigned Label: T
--
Line Notation: Cc1nc(C)c(COc2ccc(/C=C/C(=O)NCCNc3c4c(nc5ccccc35)CCCC4)cc2OCc2nc(C)c(C)nc2C)nc1C
Assigned Label: F
--
Line Notation: COc1cc(/C=C/C(=O)NCCCCCCNc2c3c(nc4ccccc24)CCCC3)cc(OC)c1OCc1nc(C)c(C)nc1C
Assigned Label: T
--
Line Notation: COc1cc(/C=C/C(=O)NCCNc2c3c(nc4ccccc24)CCCC3)cc(OC)c1O
Assigned Label: F
--
Line Notation: Cc1nc(C)c(COc2ccc(/C=C/C(=O)NCCNc3c4c(nc5ccccc35)CCCC4)cc2)nc1C
Assigned Label: F
--
Line Notation: COc1cc(/C=C/C(=O)NCCCCCCNc2c3c(nc4ccccc24)CCCC3)cc(OC)c1O
Assigned Label: T
--
Line Notation: COc1cc(/C=C/C(=O)NCCNc2c3c(nc4ccccc24)CCCC3)cc(OC)c1OCc1nc(C)c(C)nc1C
Assigned Label: F
--
Line Notation: O=C(/C=C/c1ccc(O)cc1)NCCCCNc1c2c(nc3ccccc13)CCCC2
Assigned Label: T
